Values were extracted from PubChem BioAssay AID463229.

Tested on: INS-1E rat beta cells, no cytokines, CellTiter-Glo ATP, 48 h
Method: cytokine-free beta-cell viability effect – INS-1E rat cells, ATP luminescence, cherry pick, counter-screen for beta-cell apoptosis protection project, dose response (AID 463229)
Measurement Type: AC50

O=C(Nc1ccc(Cl)c(Cl)c1)Nc1nnc(CC2=CCCCC2)s1 : 5.75 µM
Cc1cc(C)c2sc(NNC(=O)c3ccc(S(=O)(=O)N4CCc5ccccc5C4)cc3)nc2c1 : 3.38 µM
CCC(C)(C)c1ccc(OCCCC[n+]2ccc(C)cc2)c(C(C)(C)CC)c1 : 1.91 µM

I'm hoping you can list AC50 for every compound here, please.
1. CCc1ccc(CN(C)C(=O)c2cc(COc3cccc4cnccc34)on2)cc1
2. Cc1ccc(-c2c(C#N)c(N)n3c(nc4ccccc43)c2C#N)cc1
3. FC(F)(F)c1cccc(-c2nc3nc(Cl)c(Cl)nc3[nH]2)c1
4. O=C(CNc1ccc(F)cc1)N/N=C/c1c(O)ccc2ccccc12
5. CCCNC(=O)c1ccc2c(=O)c(O)c(-c3ccc(C)cc3)[nH]c2c1
6. Cc1ccc(S(=O)(=O)Nc2ccc(O)c3ccccc23)c(C)c1
7. CC(=O)c1ccc(NC(=S)NC(C)c2ccc(Cl)cc2Cl)cc1 (configuration not stated)
8. CCN(CC)S(=O)(=O)c1cccc(NC(=O)Nc2cccc(C(F)(F)F)c2)c1

(A)
["7.91 µM", "4.1 µM", "3.13 µM", "19.5 µM", "8.71 µM", "13.7 µM", "21.1 µM", "7.13 µM"]

I'm hoping you can list AC50 for every compound here, please.
1. CCCC(=O)NC(c1ccc(C)cc1)c1ccc2cccnc2c1O (configuration not stated)
2. CCC(C)Sc1cccc(-c2nc3ccc(C)cn3c2NCc2ccccc2)c1 (configuration not stated)
3. O=C1C(Cl)=C(NCCN2CCCCC2)C(=O)c2ccccc21
4. Oc1ccc(CCNc2ncnc3ccc(Cl)cc23)cc1

(A)
1.99 µM
9.3 µM
14.1 µM
5.59 µM

====

System: INS-1E rat beta cells, no cytokines, CellTiter-Glo ATP, 48 h
Method: cytokine-free beta-cell viability effect – INS-1E rat cells, ATP luminescence, cherry pick, counter-screen for beta-cell apoptosis protection project, dose response (AID 463229)
Measurement Type: AC50

Example results:
Cc1ccc(-c2ccc(/C=C3\C(=O)ON=C3c3ccccc3)o2)c([N+](=O)[O-])c1 : 6.77 µM
CC(C)Nc1ccc(Nc2ccccc2)cc1 : 7.5 µM
O=C1C(=O)c2ccc(-c3ccccc3)cc2-c2ccccc21 : 1.1 µM
CC(=O)N1CCN(c2ccc(Oc3ccc([N+](=O)[O-])c(C(F)(F)F)c3)cc2)CC1 : 7.04 µM
COc1ccc2nc(C)cc(SCC(=O)N/N=C/c3ccc(O)cc3O)c2c1 : 17.4 µM
O=C(Nc1ccc(C(=O)Nc2ccccc2Cl)cc1)c1cccnc1 : 1.85 µM
CC1CCN(Cc2c(C(=O)N/N=C/c3cc(Br)ccc3O)nnn2-c2nonc2N)CC1 : 2.52 µM
COC(=O)C1=C(C)N(Cc2ccccc2)C(=NCc2ccccc2)N[C@H]1c1cccc(C(F)(F)F)c1 : 14.1 µM
CC1CCN(Cc2c(C(=O)N/N=C/c3cc(Cl)ccc3O)nnn2-c2nonc2N)CC1 : 2.08 µM
CCS(=O)(=O)c1ccc(OC)c(N=Nc2ccc(O)c3ncccc23)c1 : 9.84 µM

I'm hoping you can list AC50 for every molecule here, please.
1. NC1=NC[C@H](Cc2ccccc2)N1CCCCC1CCCCC1
2. O=C(CCl)N(c1ccccc1)C1CCCCC1
3. COc1ccc2[nH]c(C(=O)N/N=C/c3ccc(O)cc3O)cc2c1
4. COc1cnc(-c2ccccn2)nc1Sc1ccccc1Cl
5. COc1ccc(Sc2nc(-c3ccccn3)ncc2OC)cc1
6. Cc1[nH]n(C2=NCCS2)c(=O)c1N=Nc1cccc(C(F)(F)F)c1

(A)
["6.91 µM", "5.56 µM", "2.08 µM", "23.1 µM", "19.3 µM", "7.05 µM"]

I'm hoping you can list AC50 for every molecule here, please.
1. Cc1cc(C)c2nc(NNC(=O)c3ccc(S(=O)(=O)N4CCc5ccccc5C4)cc3)sc2c1
2. Cc1cc(C(C)(C)C)cc(C)c1C[n+]1ccc2ccccc2c1
3. C#CCOCCOCCOCCNc1nc(N2CCN(C(=O)CCCCCCCCCCNC(=O)[C@H]([C@@H](C)CC)n3cc(CCCCN=C(N)N)nn3)CC2)nc(N2CCN(C(=O)CCCCCCCCCCNC(=O)[C@H](CO)n3cc(CCCCCN)nn3)CC2)n1
4. O=C1c2ccc3c4c(ccc(c24)C(=O)N1c1cccc(O)c1)C(=O)N(c1cccc(O)c1)C3=O

(A)
3.39 µM
1.74 µM
7.67 µM
3.36 µM
